- run_description: in vitro
- test_parameters: bovine, serum, Half-Life, Serum Half-Lives of Gemcitibine Diphosphate Mimics and Their Prodrugs
measured_metric: half-life at 500 μM (h)
Your answer is read as h, so omit the unit and give the number.

Quote half-life at 500 μM reported for Nc1ccn([C@@H]2O[C@H](COP(=O)(O)NP(=O)(O)O)[C@@H](O)C2(F)F)c(=O)n1 [Compound 6] please.
15

====

- run_description: in vitro
- test_parameters: bovine, serum, Half-Life, Serum Half-Lives of NTPs and AZT Triphosphate Mimics
measured_metric: half-life at 500 μM (h)
Dear colleague, please return just the value in h, with no unit written.

Quickly give me recorded half-life at 500 μM for [BH3-][P+](O)(OCC1OC(n2cc(C)c(=O)[nH]c2=O)CC1N=[N+]=[N-])OP(=O)(O)C(Cl)(Cl)P(=O)(O)O (single isomer, unassigned) [Compound 26-isomer 2]
48
